TARGET_OF_ASSAY: General transcription and DNA repair factor IIH helicase subunit XPD (Homo sapiens); also: in the data inactive means no Kd found up to 30 µM
Sequence (P18074 whole entry): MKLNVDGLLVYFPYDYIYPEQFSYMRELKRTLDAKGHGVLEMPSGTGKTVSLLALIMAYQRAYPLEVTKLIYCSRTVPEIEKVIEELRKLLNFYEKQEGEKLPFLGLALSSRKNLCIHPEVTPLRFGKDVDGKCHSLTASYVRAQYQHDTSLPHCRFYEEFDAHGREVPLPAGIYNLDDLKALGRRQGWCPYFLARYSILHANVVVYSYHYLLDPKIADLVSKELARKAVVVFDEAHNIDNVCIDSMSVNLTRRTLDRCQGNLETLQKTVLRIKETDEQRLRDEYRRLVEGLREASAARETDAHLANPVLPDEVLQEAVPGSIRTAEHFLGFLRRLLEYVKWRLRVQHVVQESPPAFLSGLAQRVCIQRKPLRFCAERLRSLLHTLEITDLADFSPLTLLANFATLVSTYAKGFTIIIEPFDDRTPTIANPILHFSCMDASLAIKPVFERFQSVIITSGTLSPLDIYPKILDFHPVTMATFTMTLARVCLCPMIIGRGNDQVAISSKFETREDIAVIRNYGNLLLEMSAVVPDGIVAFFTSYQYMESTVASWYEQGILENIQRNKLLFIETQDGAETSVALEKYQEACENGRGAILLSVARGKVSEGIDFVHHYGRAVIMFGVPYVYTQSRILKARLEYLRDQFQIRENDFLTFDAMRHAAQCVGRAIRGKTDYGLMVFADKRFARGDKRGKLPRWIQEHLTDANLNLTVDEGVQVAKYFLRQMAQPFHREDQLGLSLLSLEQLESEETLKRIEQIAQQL
STUDY_CONDITIONS: read-out: Kd apparent; k-562, colo 205, sk-n-be(2) and mv-4-11
The source made the active and inactive calls. Rule as the data show it: actives have a measured Kd and inactives only a lower limit.
MEASURED_ATTRIBUTE: Kd

The recorded Kd for `CN1C/C=C/CCOc2cccc(c2)-c2ccnc(n2)Nc2cccc(c2)C1` is 0.319 µM

The recorded Kd for `C[C@@H](Oc1cc(C(=O)Nc2ccc(C(=O)N3CCN(C)CC3)cc2)nnc1N)c1c(Cl)ccc(F)c1Cl` is > 30 µM (inactive)

The recorded Kd for `C[C@@H](N)c1ccc(C(=O)Nc2ccnc3[nH]ccc23)cc1` is > 30 µM (inactive)

The recorded Kd for `C[C@@H](NC(=O)c1ncnc(N)c1Cl)c1ncc(C(=O)Nc2cc(C(F)(F)F)c(Cl)cn2)s1` is > 30 µM (inactive)

----------
TARGET_OF_ASSAY: Tyrosine-protein kinase BTK (Homo sapiens, UniProt Q06187); also: in the data inactive means no Kd found up to 30 µM
Sequence (Q06187 whole entry): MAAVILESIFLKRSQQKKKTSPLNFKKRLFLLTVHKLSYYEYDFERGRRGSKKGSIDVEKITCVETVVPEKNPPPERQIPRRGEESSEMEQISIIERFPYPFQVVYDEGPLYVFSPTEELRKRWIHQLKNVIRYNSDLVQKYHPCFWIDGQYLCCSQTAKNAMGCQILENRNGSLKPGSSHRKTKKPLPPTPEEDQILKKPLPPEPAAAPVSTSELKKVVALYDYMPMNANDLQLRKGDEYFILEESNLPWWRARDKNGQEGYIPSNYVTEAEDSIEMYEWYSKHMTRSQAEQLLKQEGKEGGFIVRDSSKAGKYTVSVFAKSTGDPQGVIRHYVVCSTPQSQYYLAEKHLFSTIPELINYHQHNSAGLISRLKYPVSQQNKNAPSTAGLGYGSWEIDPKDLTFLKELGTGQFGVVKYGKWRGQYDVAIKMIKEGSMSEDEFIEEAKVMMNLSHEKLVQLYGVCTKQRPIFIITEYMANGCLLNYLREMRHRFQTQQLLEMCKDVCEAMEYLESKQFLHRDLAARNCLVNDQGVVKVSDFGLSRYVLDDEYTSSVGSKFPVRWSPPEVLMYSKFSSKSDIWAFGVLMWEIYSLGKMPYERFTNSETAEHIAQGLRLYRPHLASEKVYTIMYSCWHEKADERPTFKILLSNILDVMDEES
Structures can show the parent of a compound that is named as a salt. Active and inactive are the calls of the source.
Choose the fitting class; nothing outside active, inactive is accepted.

IN: Short answer needed: outcome of this test for `COc1cc([C@@H]2c3cc4c(cc3[C@H](O)[C@H]3COC(=O)[C@@H]23)OCO4)cc(OC)c1OC` ?
OUT: inactive

IN: Short answer needed: outcome of this test for `N#CC1(c2ccc(NC(=O)c3cccnc3NCc3ccncc3)cc2)CCCC1` ?
OUT: inactive

IN: Short answer needed: outcome of this test for `COc1ncc(-c2ccc3nccc(-c4ccnnc4)c3c2)cc1NS(=O)(=O)c1ccc(F)cc1F` ?
OUT: inactive

IN: Short answer needed: outcome of this test for `CC(=O)c1cnc2ccc(-c3cc(Cl)c(O)c(Cl)c3)nc2c1N[C@H]1CC[C@H](CN(C)C)CC1` ?
OUT: active

IN: Short answer needed: outcome of this test for `Cc1cc(C(=O)NOCCO)c(Nc2ccc(I)cc2F)n(C)c1=O` ?
OUT: inactive

IN: Short answer needed: outcome of this test for `Cc1csc(-c2nnc(Nc3ccc(Oc4ncccc4-c4ccnc(N)n4)cc3)c3ccccc23)c1` ?
OUT: inactive

IN: Short answer needed: outcome of this test for `COc1cc2c(Nc3ccc(Cl)c(Cl)c3F)ncnc2cc1OC[C@@H]1C[C@@H]2CN(C)C[C@@H]2C1` ?
OUT: active

IN: Short answer needed: outcome of this test for `CCn1c(C(=O)N(C2CC2)C2CC2)cc2c3c(ncn3C)c(Nc3cc(C)n(C)n3)nc21` ?
OUT: inactive

IN: Short answer needed: outcome of this test for `O=C(Cc1ccc(-c2ccc(OCCN3CCOCC3)cc2)cn1)NCc1ccccc1` ?
OUT: inactive

IN: Short answer needed: outcome of this test for `CNC(=O)c1cc(Oc2ccc(NC(=O)Nc3cc(C(C)(C)C)nn3-c3ccc4ncccc4c3)c(F)c2)ccn1` ?
OUT: active

IN: Short answer needed: outcome of this test for `Cn1cc(-c2cnc3ccc4ccc(CS(=O)(=O)NCc5ccccn5)cc4c(=O)c3c2)cn1` ?
OUT: inactive

IN: Short answer needed: outcome of this test for `CNC(=O)c1nn(C)c2c1C(C)(C)Cc1cnc(Nc3ccc(N4CCN(C)CC4)cc3)nc1-2` ?
OUT: inactive

IN: Short answer needed: outcome of this test for CCS(=O)(=O)N1CCN(c2ccc(Nc3ncc(C(N)=O)c(NC4CC4)n3)cc2)CC1 [Cerdulatinib Hydrochloride] ?
OUT: inactive

IN: Short answer needed: outcome of this test for `C#Cc1cccc(Nc2ncnc3cc(OC)c(OCCCCCCC(=O)NO)cc23)c1` ?
OUT: inactive

IN: Short answer needed: outcome of this test for `C[C@@H](Oc1cc(C(=O)Nc2ccc(C(=O)N3CCN(C)CC3)cc2)nnc1N)c1c(Cl)ccc(F)c1Cl` ?
OUT: inactive

IN: Short answer needed: outcome of this test for `Cc1cnc(NC(=O)Nc2cc(Br)c(C)cc2OC[C@@H]2CNCCO2)cn1` ?
OUT: inactive

----------
TARGET_OF_ASSAY: Serine/threonine-protein kinase TBK1 (Homo sapiens, UniProt Q9UHD2); also: in the data inactive means no Kd found up to 30 µM
Sequence (Q9UHD2 whole entry): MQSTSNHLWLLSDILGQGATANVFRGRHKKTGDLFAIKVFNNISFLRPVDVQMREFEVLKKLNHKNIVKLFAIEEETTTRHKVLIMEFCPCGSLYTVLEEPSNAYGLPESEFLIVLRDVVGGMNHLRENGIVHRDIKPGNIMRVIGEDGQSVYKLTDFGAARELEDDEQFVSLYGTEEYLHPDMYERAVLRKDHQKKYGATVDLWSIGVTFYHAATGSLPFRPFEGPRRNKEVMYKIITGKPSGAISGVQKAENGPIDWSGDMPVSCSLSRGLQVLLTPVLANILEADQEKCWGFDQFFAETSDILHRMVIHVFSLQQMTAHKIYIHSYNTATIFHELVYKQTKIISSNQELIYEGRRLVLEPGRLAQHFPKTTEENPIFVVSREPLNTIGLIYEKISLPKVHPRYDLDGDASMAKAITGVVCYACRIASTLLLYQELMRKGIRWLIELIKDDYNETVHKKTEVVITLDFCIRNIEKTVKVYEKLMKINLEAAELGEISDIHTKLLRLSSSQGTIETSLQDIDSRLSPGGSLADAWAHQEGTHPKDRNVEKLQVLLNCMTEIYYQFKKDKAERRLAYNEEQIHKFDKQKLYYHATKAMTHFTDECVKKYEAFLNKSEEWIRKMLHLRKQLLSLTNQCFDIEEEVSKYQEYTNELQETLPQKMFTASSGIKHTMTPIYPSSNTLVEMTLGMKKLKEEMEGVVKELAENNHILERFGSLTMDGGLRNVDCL
The source made the active and inactive calls.
Choose the fitting class; nothing outside T for active, F for inactive is accepted.

IN: Short answer needed: outcome of this test for Cc1cc(C(=O)NOCCO)c(Nc2ccc(I)cc2F)n(C)c1=O [AZD-8330] ?
OUT: F

IN: Short answer needed: outcome of this test for Cn1ncc(Cl)c1-c1cc(C(=O)N[C@H](CN)Cc2ccc(F)c(F)c2)oc1Cl [UPROSERTIB] ?
OUT: F

IN: Short answer needed: outcome of this test for CNC(=O)c1nn(C)c2c1C(C)(C)Cc1cnc(Nc3ccc(N4CCN(C)CC4)cc3)nc1-2 [MILCICLIB] ?
OUT: T

IN: Short answer needed: outcome of this test for N#CC1(c2ccc(NC(=O)c3cccnc3NCc3ccncc3)cc2)CCCC1 [RIVOCERANIB] ?
OUT: F

IN: Short answer needed: outcome of this test for CN1CCN(CCOc2cc(OC3CCOCC3)c3c(Nc4c(Cl)ccc5c4OCO5)ncnc3c2)CC1 [SARACATINIB] ?
OUT: F

IN: Short answer needed: outcome of this test for `C[C@H]1CNCCCN1S(=O)(=O)c1cccc2cncc(F)c12` ?
OUT: F

IN: Short answer needed: outcome of this test for COc1ccc(S(=O)(=O)N(C(C)=O)c2ccccc2/C=C/c2cc[n+]([O-])cc2)cc1 [HMN-214] ?
OUT: F

IN: Short answer needed: outcome of this test for CCCCCCCCCCCCCCCCCCOP(=O)([O-])OC1CC[N+](C)(C)CC1 [PERIFOSINE] ?
OUT: F

IN: Short answer needed: outcome of this test for NC(=O)Nc1cc(-c2cccc(F)c2)sc1C(=O)N[C@H]1CCCNC1 [AZD-7762] ?
OUT: F

IN: Short answer needed: outcome of this test for CC(C)(C)c1nc(-c2cccc(NS(=O)(=O)c3c(F)cccc3F)c2F)c(-c2ccnc(N)n2)s1 [DABRAFENIB] ?
OUT: F

IN: Short answer needed: outcome of this test for Cc1cccc(-c2nn3c(c2-c2ccnc4ccc(C(N)=O)cc24)CCC3)n1 [GALUNISERTIB] ?
OUT: F

IN: Short answer needed: outcome of this test for CCOc1cc2ncc(C#N)c(Nc3ccc(F)c(Cl)c3)c2cc1NC(=O)/C=C/CN(C)C [PELITINIB] ?
OUT: F

IN: Short answer needed: outcome of this test for FC(F)(F)c1ccc(/C=C/c2nc(COc3ccc(CCCCn4ccnn4)cc3)co2)cc1 [MUBRITINIB] ?
OUT: F

IN: Short answer needed: outcome of this test for COc1c(OCCCN2CCOCC2)ccc2c1N=C(NC(=O)c1cnc(N)nc1)N1CCN=C21 [COPANLISIB] ?
OUT: F

IN: Short answer needed: outcome of this test for COc1cc2c(Nc3ccc(Cl)c(Cl)c3F)ncnc2cc1OC[C@@H]1C[C@@H]2CN(C)C[C@@H]2C1 [TESEVATINIB] ?
OUT: F

IN: Short answer needed: outcome of this test for COc1cc2ncnc(Oc3cccc(NC(=O)Nc4cc(C(C)(C)C(F)(F)F)on4)c3)c2cc1OC [CEP-32496] ?
OUT: F

IN: Short answer needed: outcome of this test for Nc1ncnc2c1c(-c1cccc(OCc3ccccc3)c1)cn2[C@H]1C[C@@H](CN2CCC2)C1 [AEW-541] ?
OUT: F

IN: Short answer needed: outcome of this test for Cc1[nH]c(/C=C2\C(=O)Nc3ccccc32)c(C)c1CCC(=O)O [ORANTINIB] ?
OUT: T

IN: Short answer needed: outcome of this test for CCn1cc(-c2ccnc3[nH]c(-c4cccc(CN(C)C)c4)cc23)c(-c2ccc(NC(=O)N(C)C)cc2)n1 [GSK-1070916] ?
OUT: F

IN: Short answer needed: outcome of this test for NC1(c2ccc(-c3nc4ccn5c(=O)[nH]nc5c4cc3-c3ccccc3)cc2)CCC1 [MK-2206] ?
OUT: F

IN: Short answer needed: outcome of this test for CNC(=O)c1cc(Oc2ccc(NC(=O)Nc3cc(C(C)(C)C)nn3-c3ccc4ncccc4c3)c(F)c2)ccn1 [REBASTINIB] ?
OUT: F

IN: Short answer needed: outcome of this test for C=CC(=O)Nc1cc2c(Nc3ccc(F)c(Cl)c3)ncnc2cc1C#CC(C)(C)N1CCN(C)CC1 [AV-412 FREE BASE] ?
OUT: F

IN: Short answer needed: outcome of this test for `C=CC(=O)N1CCC[C@H](n2c(=O)n(-c3ccc(Oc4ccccc4)cc3)c3c(N)ncnc32)C1` ?
OUT: F

IN: Short answer needed: outcome of this test for `CCNC(=O)C#Cc1ccc2c(c1)NC(=O)/C2=C(\Nc1ccc(CN(C)C)cc1)c1ccccc1` ?
OUT: T

IN: Short answer needed: outcome of this test for CO[C@H]1C[C@@H]2CC[C@@H](C)[C@@](O)(O2)C(=O)C(=O)N2CCCC[C@H]2C(=O)O[C@H]([C@H](C)C[C@@H]2CC[C@@H](OP(C)(C)=O)[C@H](OC)C2)CC(=O)[C@H](C)/C=C(\C)[C@@H](O)[C@@H](OC)C(=O)[C@H](C)C[C@H](C)/C=C/C=C/C=C/1C [RIDAFOROLIMUS] ?
OUT: F

IN: Short answer needed: outcome of this test for Cc1cc(Nc2ncc(Cl)c(Nc3ccccc3S(=O)(=O)C(C)C)n2)c(OC(C)C)cc1C1CCNCC1 [CERITINIB] ?
OUT: F

IN: Short answer needed: outcome of this test for COc1cc([C@@H]2c3cc4c(cc3[C@H](O)[C@H]3COC(=O)[C@@H]23)OCO4)cc(OC)c1OC [AXL-1717] ?
OUT: F

IN: Short answer needed: outcome of this test for CO[C@H]1C[C@@H]2CC[C@@H](C)[C@@](O)(O2)C(=O)C(=O)N2CCCC[C@H]2C(=O)O[C@H]([C@H](C)C[C@@H]2CC[C@@H](O)[C@H](OC)C2)CC(=O)[C@H](C)/C=C(\C)[C@@H](O)[C@@H](OC)C(=O)[C@H](C)C[C@H](C)/C=C/C=C/C=C/1C [SIROLIMUS] ?
OUT: F

IN: Short answer needed: outcome of this test for Cc1nc2cc(-n3ncc(C(=O)c4cc5ccccc5[nH]4)c3N)ccc2[nH]1 [FGFR INHIBITOR DEBIO 1347] ?
OUT: F
